Source of measurements: PubChem BioAssay (Tox21)

# assay_explanation: qHTS assay for identifying genotoxic compounds that show differential cytotoxicity against isogenic chicken DT40 cell lines with known DNA damage response pathways - Rad54/Ku70 mutant cell line (AID 743015); further: nearly all actives have a fitted effect of over 60% in size
# measurement_parameters: DT40 Rad54/Ku70 mutant viability, CellTiter-Glo, 40 h; series mostly up to 66.8 µM
Records with an inconclusive call do not appear. Calls of active or inactive are those of the source. The call rests on the fitted dose curve; in most records, active means well fitted cell-killing curve with a large enough effect in the repeat runs; inconclusive means weak or mixed curves; inactive means no such curve, though single readings can be large or run the other way. Residues, ends and D or L forms follow the SMILES beside them.
Answer with one of the outcomes active, inactive

>  <molecule>
CC(=O)OCC1=C(C(=O)O)N2C(=O)[C@@H](NC(=O)Cc3ccccc3)[C@H]2SC1

>  <class_name>
inactive

$$$$
>  <molecule>
O=C1OC(=O)c2cc(-c3ccc4c(c3)C(=O)OC4=O)ccc21

>  <class_name>
active

$$$$
>  <molecule>
Cc1cn([C@H]2C[C@H](O)[C@@H](CO)O2)c(=O)[nH]c1=O

>  <class_name>
inactive

$$$$
>  <molecule>
NCc1cccc(C2CCN(C(=O)c3ccc(C#Cc4ccccc4F)o3)CC2)c1

>  <class_name>
active

$$$$
>  <molecule>
NS(=O)(=O)c1cc(Cl)c(Cl)c(S(N)(=O)=O)c1

>  <class_name>
inactive

$$$$

# input In this assay, the call recorded for O=[N+]([O-])c1ccc(O)c2ncccc12 was what?
# output active

# input In this assay, the call recorded for O=C1CCC(c2ccc(-n3ccnc3)cc2)=NN1 was what?
# output inactive

# input In this assay, the call recorded for COc1cc(NS(C)(=O)=O)ccc1Nc1c2ccccc2nc2ccccc12 was what?
# output active

# input In this assay, the call recorded for CCN1CCCC1CNC(=O)c1cc(S(=O)(=O)CC)ccc1OC (stereo not given) was what?
# output inactive

# input In this assay, the call recorded for CCN(CC)CCNC(=O)c1ccc(NS(C)(=O)=O)cc1 was what?
# output inactive

# input In this assay, the call recorded for N#Cc1nc(Cl)c(Cl)c(Cl)c1Cl was what?
# output active

# input In this assay, the call recorded for O=C(O)[C@@H]1C[C@H](CP(=O)(O)O)CCN1 was what?
# output inactive

# input In this assay, the call recorded for CCCn1c(=O)[nH]c(=O)c2[nH]cnc21 was what?
# output inactive

# input In this assay, the call recorded for CCOc1cc(CC(=O)N[C@@H](CC(C)C)c2ccccc2N2CCCCC2)ccc1C(=O)O was what?
# output inactive

# input In this assay, the call recorded for C=CCN1C(=O)C(CC(C)C)NC1=S (stereo not given) was what?
# output inactive

# input In this assay, the call recorded for Cc1cc(CC(C)CC(C)(C)C)n(O)c(=O)c1 (stereo not given) (tested in a mixture with another compound) was what?
# output active

# input In this assay, the call recorded for CCCC(CCC)C(=O)OC1C[C@H]2CC[C@@H](C1)[N+]2(C)C (stereo not given in full) was what?
# output inactive

# input In this assay, the call recorded for O=C(O)[C@H]1CN(C/C=C/P(=O)(O)O)CCN1 was what?
# output inactive

# input In this assay, the call recorded for N[C@@H](Cc1ccc(O)c(O)c1)C(=O)O was what?
# output inactive

# input In this assay, the call recorded for CC(C)OC(=O)Nc1ccc2nc(-c3cscn3)[nH]c2c1 was what?
# output active

# input In this assay, the call recorded for CCCC(=O)c1cc(O)c(O)cc1O was what?
# output active

# input In this assay, the call recorded for COc1cc2c(cc1O)CCN[C@]21CS[C@@H]2c3c(OC(C)=O)c(C)c4c(c3[C@H](COC1=O)N1[C@@H]2[C@H]2c3c(cc(C)c(OC)c3O)C[C@@H]([C@@H]1O)N2C)OCO4 was what?
# output active

# input In this assay, the call recorded for CCCCCCCCCCCCN1CCCC1=O was what?
# output active

# input In this assay, the call recorded for C/C(=C\C(=O)OCCCCCCCCC(=O)O)C[C@@H]1OC[C@H](C[C@@H]2O[C@H]2[C@@H](C)[C@H](C)O)[C@@H](O)[C@H]1O was what?
# output active

# input In this assay, the call recorded for CSCC[C@H](NC(=O)[C@H](Cc1ccc(OS(=O)(=O)O)cc1)NC(=O)[C@@H](N)CC(=O)O)C(=O)NCC(=O)N[C@@H](Cc1c[nH]c2ccccc12)C(=O)N[C@@H](CCSC)C(=O)N[C@@H](CC(=O)O)C(=O)N[C@@H](Cc1ccccc1)C(N)=O was what?
# output inactive

# input In this assay, the call recorded for CC(=O)Nc1ccc(OC(C)=O)cc1 was what?
# output inactive

# input In this assay, the call recorded for CC(C)[C@H](NC(=O)[C@H](CC(=O)O)NC(=O)[C@H](CCCCN)NC(=O)[C@@H](N)CCCN=C(N)N)C(=O)N[C@@H](Cc1ccc(O)cc1)C(=O)O (H-RKDVY-OH) was what?
# output inactive
